- MEASURED ON: Proteinase-activated receptor 4 (Homo sapiens)
- Sequence (whole entry): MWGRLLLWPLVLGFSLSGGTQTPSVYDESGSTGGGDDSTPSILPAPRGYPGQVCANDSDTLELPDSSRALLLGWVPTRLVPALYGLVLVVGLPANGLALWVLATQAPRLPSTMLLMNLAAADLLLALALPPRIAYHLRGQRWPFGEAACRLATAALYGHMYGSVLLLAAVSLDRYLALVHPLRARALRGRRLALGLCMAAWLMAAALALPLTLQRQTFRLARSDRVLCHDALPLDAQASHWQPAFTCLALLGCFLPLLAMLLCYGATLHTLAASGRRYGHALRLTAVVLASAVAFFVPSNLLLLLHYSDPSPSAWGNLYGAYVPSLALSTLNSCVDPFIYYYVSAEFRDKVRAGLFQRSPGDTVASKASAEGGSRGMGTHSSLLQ
- ASSAY NAME: Antagonist activity at PAR4 in human platelet rich plasma assessed as inhibition of gamma-PAR4 agonist peptide (AYPGKF-NH2)-induced platelet aggregation at 200 nM preincubated for 5 mins followed by peptide addition and measured after 5 mins by aggregometer relative to control
- Assay type: cell-based
- MEASUREMENT SETUP: filed as antagonist, time 10.0 min
READOUT: inhibition
Could you write the number and then its unit?

COc1ncc2cc(C)cc(-c3nc4c(C)cc5c(c4s3)OCCO5)c2n1 ... 65.3%
COc1cc(Cl)c2nc(-c3cc(C)cc4cnc(N5CCOCC5)nc34)sc2c1 ... 52.3%
COc1ncc2c(-c3nc4cc(F)c(OCCO)cc4s3)cc(C)cc2n1 ... 84.1%
COc1cc(Cl)c2nc(-c3cc(C)cc4nc(OC)ncc34)sc2c1 ... 85.2%
COc1ccc2nc(-c3cc(C)cc4nc(OC(C)C)ncc34)sc2c1 ... 42.9%

Answer with inhibition of COc1cc(Cl)c2nc(-c3cc(C)cc4c(=O)n(C)cnc34)sc2c1 measured for Proteinase-activated receptor 4 (Homo sapiens).
94.5%

Write down measured inhibition (Proteinase-activated receptor 4 (Homo sapiens)) for this compound. COc1cc(Cl)c2nc(-c3cc(C)cc4nc(SC)ncc34)sc2c1
68.2%

Check Proteinase-activated receptor 4 (Homo sapiens) data and give inhibition for COc1ncc2c(-c3nc4cc(F)c5c(c4s3)C[C@H](COC(=O)Nc3ccc(C)cc3)O5)cc(C)cc2n1 .
79.6%

Look up and report measured inhibition (Proteinase-activated receptor 4 (Homo sapiens)) for the following compound: COc1cc(Cl)c2nc(-c3cc(C)cc4cnc(OC(F)F)nc34)sc2c1
74.5%

Please respond with reported inhibition (system Proteinase-activated receptor 4 (Homo sapiens)) for CCOc1ncc2c(-c3nc4c(Cl)cc(OC)cc4s3)cc(C)cc2n1 .
43.4%
